System name: MetQ (Streptococcus pneumoniae)
Construct: gene SPD_0151; His6-MetQ (Sp_0149) without the predicted N-terminal signal peptide, ligand free, cloned from strain D39
Sequence (A0A0H2ZPC6 entry or part of it): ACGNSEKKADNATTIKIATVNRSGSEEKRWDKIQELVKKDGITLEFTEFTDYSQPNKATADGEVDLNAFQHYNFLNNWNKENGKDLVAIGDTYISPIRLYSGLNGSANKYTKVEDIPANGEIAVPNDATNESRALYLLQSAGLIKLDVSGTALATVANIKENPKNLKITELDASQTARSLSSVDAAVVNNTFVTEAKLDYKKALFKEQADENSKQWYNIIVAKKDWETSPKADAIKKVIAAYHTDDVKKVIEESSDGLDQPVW
Method notes: isothermal titration calorimetry (also tryptophan fluorescence, KD […])
Assay type: binding
Reported property: pKd
In simple prose, pKd is minus the logarithm base ten of a concentration in moles per litre.

Any idea what pKd was measured for CSCC[C@H](N)C(=O)O ?
7.58

---

For each record, write down the corresponding pKd.
System name: MetQ (Streptococcus pneumoniae)
Construct: gene SPD_0151; His6-MetQ (Sp_0149) without the predicted N-terminal signal peptide, ligand free, cloned from strain D39
Method notes: tryptophan fluorescence spectroscopy titration
Type: binding
Keep in mind that pKd stands for -log10 of concentration in molar terms.

Value lookup for pKd; key = CSCC[C@@H](N)C(=O)O
4.56

Query (compound): CSCCC(C)(N)C(=O)O (racemic) ; field requested: pKd
4.52

For the compound shown here, NC(CCS)C(=O)O (racemic) , give the reported pKd.
5.15
